Hey, just so you know, these numbers are from ChEMBL document CHEMBL1134191.

This listing pairs molecules with measured pKi.
- Organism: Rattus norvegicus
- Protocol notes: Inhibition of [3H]-dopamine uptake into striatal membrane preparations
- Format: functional, Striatum
pKi field: float, defined as -log10 of concentration (mol/L).

| Smiles repr | pKi |
| --- | --- |
| Fc1ccc(CCCCN2CCC(c3ccc(F)cc3)CC2)cc1 | 5.60 |
| Fc1ccc(OCCN2CCC(c3ccccc3)CC2)cc1 | 5.57 |
| Fc1ccc(CCN2CCC(c3ccc(F)cc3)CC2)cc1 | 5.87 |
| Clc1ccc(OCCN2CCC(c3ccc(Cl)cc3)CC2)cc1 | 7.05 |

# query: pKi of entry "O=C(CCN1CCC(c2ccc(F)cc2)CC1)c1ccc(F)cc1" 5.57

* * *

- Organism: Rattus norvegicus
- Protocol notes: Inhibitory concentration for [3H]-dopamine uptake by striatal membrane preparations in presence of 1000 nM compound 5
- Type: functional
- Experimental setup: Striatum
Measured property: pIC50
pIC50 field: float, defined as -log10 of concentration (mol/L).

# query: pIC50 of entry "COC(=O)[C@H]1[C@@H](OC(=O)c2ccccc2)C[C@@H]2CC[C@H]1N2C" 6.16

* * *

- Species: Rattus norvegicus
- Protocol notes: Inhibition of [3H]-dopamine uptake into striatal membrane preparations
- Type: functional, Striatum
This listing pairs compounds with measured pKi.
pKi field: float, defined as -log10 of concentration (mol/L).

Some entries whose results are on file:
| Smiles repr | pKi |
| --- | --- |
| OC1(c2ccccc2)CCN(CCOc2ccc(F)cc2)CC1 | 4.76 |
| O=C(CN1CCC(c2ccc(F)cc2)CC1)c1ccc(F)cc1 | 5.36 |
| O=C(CCCN1CCC(c2ccc(F)cc2)CC1)c1ccc(F)cc1 | 5.50 |

# query: pKi of entry "O=C(CCN1CCC(c2ccccc2)CC1)c1ccc(F)cc1" 5.81

* * *

- Organism: Rattus norvegicus
- Protocol notes: Inhibitory concentration for [3H]dopamine uptake by striatal membrane preparations in presence of 500 nM compound 5
- Format: functional
- Experimental setup: Striatum
Measured property: IC50 (µM)
Number only, in µM; omit the unit.

# query: IC50 of entry COC(=O)[C@H]1[C@@H](OC(=O)c2ccccc2)C[C@@H]2CC[C@H]1N2C [COCAINE] 0.538
